src = patent US12410160B2

Hi there, I'd appreciate the recorded pIC50 for every entry that follows.
ASSAYED SYSTEM: human KHK-C (Homo sapiens (Human), UniProt P50053)
Sequence (P50053 whole entry): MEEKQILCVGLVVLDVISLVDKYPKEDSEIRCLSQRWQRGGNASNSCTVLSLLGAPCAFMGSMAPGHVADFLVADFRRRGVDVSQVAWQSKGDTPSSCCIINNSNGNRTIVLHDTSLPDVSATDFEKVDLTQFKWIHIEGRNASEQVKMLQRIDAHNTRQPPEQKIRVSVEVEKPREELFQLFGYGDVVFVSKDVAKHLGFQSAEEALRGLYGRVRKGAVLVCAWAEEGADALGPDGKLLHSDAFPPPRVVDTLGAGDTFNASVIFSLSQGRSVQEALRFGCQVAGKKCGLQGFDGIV
ASSAY SUMMARY: KHK Biochemical Assay (IC50), ADP-Glo, KHK-C
MEASUREMENT CONDITIONS: ADP-Glo; average of at least two separate assays
Numbers only, as −log10 of the molar value.

Solved entries (count: 3):
# MOLECULE, pIC50
measured = [
    ("C[C@H]1CCN1c1nc2c(c(-c3ccc(C(N)=O)c(C(F)(F)F)c3)n1)CCC2", 7.37),
    ("C[C@H]1CCN1c1nc2c(c(-c3nc4ccc(C(N)=O)cc4s3)n1)CCC2", 6.83),
    ("C[C@H]1CCN1c1nc2c(c(-c3ccc4c(c3)CCCCC4NS(C)(=O)=O)n1)CCC2 (stereo partly drawn)", 6.35),
]

Working through the 7 molecules below one at a time, give pIC50 for each.
1. C[C@H]1[C@H](O)CN1c1nc(-c2ccc3c(c2)O[C@@H](CO)CNC3=O)c2c(n1)C(F)(F)CC2
2. C[C@H]1CCN1c1nc2c(c(-c3ccc(C(=O)Nc4ccccc4)cc3)n1)CCC2
3. C[C@H]1CCN1c1nc2c(c(-c3ccc(CO)s3)n1)CCC2
4. COc1ccc(-c2nc(N3CC[C@@H]3C)nc3c2CCC3)cc1S(=N)(=O)C1CCOCC1 (stereo partly drawn)
5. C[C@H]1CCN1c1nc2c(c(-c3ccc(C45CC(C(=O)O)(C4)C5)cc3)n1)CCC2
6. C[C@H]1CCN1c1nc2c(c(-c3ccc(CC(N)=O)cc3)n1)CCC2
7. C[C@H]1CCN1c1nc2c(c(-c3ccc4ccc(C(=O)O)cc4c3)n1)CCC2

Result:
1. 8.20
2. 5.52
3. 7.74
4. 7.58
5. 7.02
6. 7.10
7. 7.35

Working through the 6 molecules below one at a time, give pIC50 for each.
1. C[C@H]1[C@H](O)CN1c1nc2c(c(-c3ccc(C(=O)O)cc3)n1)CCC2
2. C[C@H]1CCN1c1nc2c(c(-c3ccc4c(c3)C3(CCC4)CC3C(=O)O)n1)CCC2 (stereo partly drawn)
3. C[C@H]1CCN1c1nc2c(c(-c3cccc(C(=O)N4CC(C(=O)O)C4)c3)n1)CCC2
4. C[C@H]1CCN1c1nc(-c2cccc(C(N)=O)c2)c2c(n1)[C@@H]1CC[C@H]2C1
5. C[C@H]1CCN1c1nc2c(c(-c3cccc(C(=O)NCc4ccccc4)c3)n1)CCC2
6. C[C@H]1CCN1c1nc2c(c(-c3ccc4c(N)nc(N)nc4c3)n1)CCC2

Result:
1: 7.03; 2: 7.22; 3: 7.35; 4: 7.02; 5: 6.31; 6: 7.73

Working through the 3 molecules below one at a time, give pIC50 for each.
1. C[C@H]1[C@H](O)CN1c1nc2c(c(-c3ccc4c(c3)CCNC4=O)n1)CCC2
2. C[C@H]1CCN1c1nc2c(c(-c3ccc(CS(N)(=O)=O)cc3)n1)CCC2
3. C[C@H]1CCN1c1nc2c(c(-c3ccccn3)n1)CCC2

Result:
7.35
6.87
6.53

Working through the 4 molecules below one at a time, give pIC50 for each.
1. C[C@H]1CCN1c1nc2c(c(-c3ccc(-c4noc(=O)[nH]4)cc3)n1)CCC2
2. C[C@H]1CCN1c1nc2c(c(-c3cccc(S(=O)(=O)N(C)C)c3)n1)CCC2
3. C[C@H]1CCN1c1nc2c(c(-c3cccc(C(=O)NCCO)c3)n1)CCC2
4. C[C@H]1CCN1c1nc(-c2ccccc2)c2ncsc2n1

Result:
1. 7.63
2. 6.98
3. 7.04
4. 5.81

Working through the 7 molecules below one at a time, give pIC50 for each.
1. O=C1N[C@@]2(CO1)COc1cc(-c3nc(N4CC[C@@H]4C(F)(F)F)nc4c3CCC4(F)F)ccc12
2. C[C@H]1CCN1c1nc2c(c(-c3ccns3)n1)CCC2
3. C[C@H]1[C@H](O)CN1c1nc(-c2ccc(C(N)=O)cc2)c2c(n1)C1CC2C1
4. C[C@H]1CCN1c1nc2c(c(-c3cccc(OC(F)F)c3)n1)CCC2
5. COc1ccc(-c2nc(N3CC[C@@H]3C)nc3c2CCC3)cc1S(=N)(=O)CC1COCOC1 (stereo partly drawn)
6. C[C@H]1CCN1c1nc2c(c(-c3ccc(C(N)=O)c(C(=O)c4ccccc4)c3)n1)CCC2
7. C[C@H]1CCN1c1nc2c(c(-c3ccc4c(c3)C3(CC4)CNC(=O)C3)n1)CCC2 (stereo partly drawn)

Result:
1: 9.70; 2: 7.39; 3: 6.05; 4: 5.55; 5: 8.07; 6: 7.09; 7: 7.24

Working through the 2 molecules below one at a time, give pIC50 for each.
1. C[C@H]1[C@H](O)CN1c1nc(-c2cccc(S(N)(=O)=O)c2)c2c(n1)C(F)(F)CC2
2. C[C@H]1CCN1c1nc2c(c(-c3ccc4cn[nH]c4c3)n1)CCC2

Result:
8.13
6.59
